assay-target: PIK3CD (Human) (UniProt O00329)
Sequence (O00329 whole entry, looked up): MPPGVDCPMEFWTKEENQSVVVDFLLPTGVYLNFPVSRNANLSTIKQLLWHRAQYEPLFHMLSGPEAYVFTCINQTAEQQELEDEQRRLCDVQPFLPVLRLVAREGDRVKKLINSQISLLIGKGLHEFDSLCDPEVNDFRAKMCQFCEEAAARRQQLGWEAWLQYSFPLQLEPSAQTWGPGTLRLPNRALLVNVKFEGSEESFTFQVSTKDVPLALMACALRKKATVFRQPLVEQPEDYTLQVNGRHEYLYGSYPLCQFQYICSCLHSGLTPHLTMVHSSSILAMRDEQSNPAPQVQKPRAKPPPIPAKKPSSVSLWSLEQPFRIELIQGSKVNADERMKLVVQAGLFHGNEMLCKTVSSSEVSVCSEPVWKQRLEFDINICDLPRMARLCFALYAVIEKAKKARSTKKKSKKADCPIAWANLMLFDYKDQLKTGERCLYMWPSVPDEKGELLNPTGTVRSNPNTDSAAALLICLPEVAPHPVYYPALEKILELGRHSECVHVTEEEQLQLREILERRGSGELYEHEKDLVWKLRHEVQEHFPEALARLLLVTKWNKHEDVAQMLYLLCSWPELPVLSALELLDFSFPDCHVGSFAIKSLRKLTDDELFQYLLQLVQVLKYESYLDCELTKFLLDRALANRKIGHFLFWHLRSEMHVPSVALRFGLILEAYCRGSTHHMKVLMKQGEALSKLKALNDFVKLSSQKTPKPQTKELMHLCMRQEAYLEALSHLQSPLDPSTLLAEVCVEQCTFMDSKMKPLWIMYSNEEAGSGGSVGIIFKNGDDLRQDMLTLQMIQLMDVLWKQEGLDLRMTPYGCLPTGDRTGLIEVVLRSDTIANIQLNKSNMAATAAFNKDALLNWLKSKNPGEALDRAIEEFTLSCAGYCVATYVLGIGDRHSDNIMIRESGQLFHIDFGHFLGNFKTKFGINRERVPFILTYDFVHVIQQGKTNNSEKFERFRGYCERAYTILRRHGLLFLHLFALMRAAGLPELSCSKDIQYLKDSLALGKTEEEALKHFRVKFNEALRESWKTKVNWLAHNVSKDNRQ
quantity-kind: IC50

{"smiles-code": "CC[C@H](Nc1nc(N)nc(N)c1C#N)c1nc2c(F)ccc(F)c2c(=O)n1-c1ccccc1", "quantity-kind": "IC50", "val": "1 to 10 nM"}
{"smiles-code": "C[C@H](Nc1nc(N)nc(N)c1C#N)c1nc2cccc(S(C)(=O)=O)c2c(=O)n1-c1cccc(C(F)F)c1", "quantity-kind": "IC50", "val": "1 to 10 nM"}
{"smiles-code": "C[C@H](Nc1nc(N)nc(N)c1C#N)c1nc2cccc(Cl)c2c(=O)n1-c1cc(F)cc(F)c1", "quantity-kind": "IC50", "val": "≤ 1 nM"}
{"smiles-code": "CC[C@H](Nc1nc(N)nc(N)c1C#N)c1nc2c(F)cccc2c(=O)n1-c1cc(F)cc(F)c1", "quantity-kind": "IC50", "val": "1 to 10 nM"}
{"smiles-code": "C[C@H](Nc1nc(N)nc(N)c1C#N)c1nc2ccc(F)c(F)c2c(=O)n1-c1cc(F)cc(F)c1", "quantity-kind": "IC50", "val": "10 to 50 nM"}
{"smiles-code": "COc1cc(OC)cc(-n2c([C@H](C)Nc3nc(N)nc(N)c3C#N)nc3cccc(Cl)c3c2=O)c1", "quantity-kind": "IC50", "val": "1 to 10 nM"}
{"smiles-code": "C[C@H](Nc1nc(N)nc(N)c1C#N)c1nc2c(Cl)ccc(Cl)c2c(=O)n1-c1cc(F)cc(F)c1", "quantity-kind": "IC50", "val": "1 to 10 nM"}
{"smiles-code": "C[C@H](Nc1nc(N)nc(N)c1Cl)c1nc2cccc(Cl)c2c(=O)n1-c1ccccc1", "quantity-kind": "IC50", "val": "≤ 1 nM"}
